- System: SNB-75 CNS
- procedureSummary: NCI-60 one-dose screen, 48 h
- conditionParameters: 10 µM unless noted
About 83,000 compounds went through this panel and 20% of them were active in at least one assay; those are over-represented in the sample as a whole. Active and inactive are the calls of the source. Rule for the calls: active = growth percent below 10; inactive = the rest.
Just give me one of these, please: active, inactive

Please review the entries below; each comes with its answer.
C[C@H](C(=O)N[C@@H](Cc1ccc(-c2ccccc2)cc1)C(=O)NC1CC(C)(C)NC(C)(C)C1)c1ccc(-c2ccccc2)c(F)c1    inactive
CN(C)CCC(=O)Nc1ccc(-n2cc(-c3cccc(NC(=S)Nc4cccc(-c5cn(-c6ccc(NC(=O)CCN(C)C)cc6)nn5)c4)c3)nn2)cc1    inactive
C1CCC(C(CC2CCCCN2)C2CCCCC2)CC1 (centres undefined)    active

// param item: CCSCC1CC(O)(c2ccccc2)C(c2ccccc2)C(c2ccc(Cl)cc2)O1 (centres undefined) ; yields the recorded call inactive
